KD fold improvement: recorded values
Target: T1, mouse tissue factor pathway inhibitor (TFPI) (mouse, UniProt O54819 29-289, limits assumed)
T1 construct: bought; also called mTFPI; murine TFPI
T1 sequence (looked up): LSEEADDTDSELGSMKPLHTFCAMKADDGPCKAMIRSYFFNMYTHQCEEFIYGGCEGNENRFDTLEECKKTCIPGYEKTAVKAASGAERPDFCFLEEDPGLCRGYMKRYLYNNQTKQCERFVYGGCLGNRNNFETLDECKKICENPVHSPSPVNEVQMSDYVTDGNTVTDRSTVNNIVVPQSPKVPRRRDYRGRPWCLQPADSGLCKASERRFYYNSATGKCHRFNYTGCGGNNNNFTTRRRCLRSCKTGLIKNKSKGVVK
Experiment: SPR, TFPI immobilized
observable: KD fold improvement (fold)

INSERT INTO measurements (binder, reported_measurement) VALUES
  ('2A8-g216 (HC S31V+I51D+S55R+K99V/LC D1S+I2Y+A13S+S21T+R28P+N29K+Y48F+N51S+E80M+D91L+D92S+V94T+V96W) (Fab, V domains shown) VH: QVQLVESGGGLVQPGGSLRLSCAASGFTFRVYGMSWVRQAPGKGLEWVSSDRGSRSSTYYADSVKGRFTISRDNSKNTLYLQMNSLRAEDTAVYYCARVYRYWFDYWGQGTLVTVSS VL: SYELTQPPSVSVSPGQTARITCSGDNLPKYYAHWYQQKPGQAPVVVIFYDSNRPSGIPERFSGSNSGNTATLTISGTQAMDEADYYCQSWLSGTPWFGGGTKLTVLG', 41.6),
  ('2A8-143 (HC S35D+S55R+K99L/LC Y48F+N51V+D91L+V96W) (Fab, V domains shown) VH: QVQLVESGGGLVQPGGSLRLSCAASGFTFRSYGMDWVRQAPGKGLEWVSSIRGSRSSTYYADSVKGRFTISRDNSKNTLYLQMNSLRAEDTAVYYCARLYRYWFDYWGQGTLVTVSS VL: DIELTQPPSVSVAPGQTARISCSGDNLRNYYAHWYQQKPGQAPVVVIFYDVNRPSGIPERFSGSNSGNTATLTISGTQAEDEADYYCQSWLDGVPWFGGGTKLTVLG', 48.5),
  ('2A8-g200 (HC Q1E+R30S+S35D+S55R+S56G+K99L/LC D1S+I2Y+A13S+S21T+R28P+N29K+Y48F+N51V+E80M+S89A+D91W+D92S+G93S+V94T) (Fab, V domains shown) VH: EVQLVESGGGLVQPGGSLRLSCAASGFTFSSYGMDWVRQAPGKGLEWVSSIRGSRGSTYYADSVKGRFTISRDNSKNTLYLQMNSLRAEDTAVYYCARLYRYWFDYWGQGTLVTVSS VL: SYELTQPPSVSVSPGQTARITCSGDNLPKYYAHWYQQKPGQAPVVVIFYDVNRPSGIPERFSGSNSGNTATLTISGTQAMDEADYYCQAWWSSTPVFGGGTKLTVLG', 27.3),
  ('2A8-216 (HC S31V+I51D+S55R+K99V/LC Y48F+D91L+V96W) (Fab, V domains shown) VH: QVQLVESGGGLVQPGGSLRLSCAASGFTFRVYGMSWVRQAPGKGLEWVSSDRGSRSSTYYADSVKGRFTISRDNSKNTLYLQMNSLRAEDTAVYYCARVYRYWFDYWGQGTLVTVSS VL: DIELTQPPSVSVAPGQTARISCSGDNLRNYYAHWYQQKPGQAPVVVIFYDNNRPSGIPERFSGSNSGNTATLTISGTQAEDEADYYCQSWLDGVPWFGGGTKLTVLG', 63.9),
  ('2A8-227 (HC S35D+K99L/LC Y48F+D91L+V96W) (Fab, V domains shown) VH: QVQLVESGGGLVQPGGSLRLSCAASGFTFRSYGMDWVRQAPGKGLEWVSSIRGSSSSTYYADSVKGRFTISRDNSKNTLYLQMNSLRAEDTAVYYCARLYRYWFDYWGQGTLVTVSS VL: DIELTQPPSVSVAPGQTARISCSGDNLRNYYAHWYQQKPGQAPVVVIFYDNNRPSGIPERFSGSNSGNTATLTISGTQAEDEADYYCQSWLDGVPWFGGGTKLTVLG', 21.4),
  ('2A8-200 (HC S35D+S55R+K99L/LC Y48F+N51V+D91W) (Fab, V domains shown) VH: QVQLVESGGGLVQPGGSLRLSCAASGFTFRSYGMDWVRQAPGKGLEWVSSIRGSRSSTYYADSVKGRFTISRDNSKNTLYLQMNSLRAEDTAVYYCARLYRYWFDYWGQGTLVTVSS VL: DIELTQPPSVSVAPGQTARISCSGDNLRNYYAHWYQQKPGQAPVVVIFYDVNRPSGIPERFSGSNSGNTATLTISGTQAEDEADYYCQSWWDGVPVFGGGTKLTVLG', 55.4);

Origin of the recorded values: patent USRE47150
